# ASSAY_METHOD_TEXT: cytotoxicity in normal lymphocytes, dye exclusion method
# Format: cell-based
# EXPERIMENTAL_CONTEXT: concentration resulting in 50% viability, read-out: Effect on viability of normal cells VC50
ASSAY_READOUT: CC50

Look at each compound and report its CC50.
1. N#CN=C(NCCCOc1ccccc1)Nc1ccncc1 [Example No. 5]
2. N#CN=C(NCCCCCOc1ccccc1)Nc1ccncc1 [Example No. 18]
3. N#CN=C(NCCCCOc1ccccc1)Nc1ccncc1 [Example No. 14]

Result:
> 100 µM
> 100 µM
100 µM

From: patent US5696140A
